From: patent US20220274947A1

# System: Rhipicephalus sanguineus
# method description: Rhipicephalus sanguineus in-vitro contact test, adult brown dog ticks (RHIPSA Cont)
# Type: in vivo
# condition set: 48 h, application rate 5 μg/cm^2 (=500 g/ha), after 48 hours, read-out: activity (efficacy: 100% means all ticks are dead or moribund)
Record form. Attribute: pest or weed control at 5 µg/cm2, 500 g/ha. Fill in for each entry.
Answers are plain numbers, in %.

Sample answers from the record:
mol smiles	target under test	assay value
Cc1nc([C@H](C)NC(=O)c2cc(OC(F)(F)F)cc(C(F)F)c2)n(-c2ccc(C#N)cn2)n1	Rhipicephalus sanguineus	100
C[C@H](NC(=O)c1cc(OC(F)F)cc(C(F)F)c1)c1ncnn1-c1ccc(C#N)cn1	Rhipicephalus sanguineus	100
C[C@H](NC(=O)c1cc(Cl)cc(OC(F)(F)F)c1)c1ncnn1-c1ncc(OC(F)F)cn1	Rhipicephalus sanguineus	100
C[C@H](NC(=O)c1cccc(C(F)(F)F)n1)c1ncnn1-c1ccc(C#N)cn1	Rhipicephalus sanguineus	100

Provide the reported pest or weed control at 5 µg/cm2, 500 g/ha of each entry below, same order.
1. Cc1nc([C@H](C)NC(=O)c2cc(Br)cc(C#N)c2)n(-c2ccc(C#N)cn2)n1
2. Cc1nc([C@H](C)NC(=O)c2cc(Cl)cc(Br)c2)n(-c2ccc(C#N)cn2)n1

100
100
